Sourced from ChEMBL document CHEMBL1125349

molecular target: UniProtKB P30547; experiment: In vitro agonistic activity against tachykinin receptor 1 of guinea pig ileum longitudinal smooth muscle.
Sequence (P30547 whole entry): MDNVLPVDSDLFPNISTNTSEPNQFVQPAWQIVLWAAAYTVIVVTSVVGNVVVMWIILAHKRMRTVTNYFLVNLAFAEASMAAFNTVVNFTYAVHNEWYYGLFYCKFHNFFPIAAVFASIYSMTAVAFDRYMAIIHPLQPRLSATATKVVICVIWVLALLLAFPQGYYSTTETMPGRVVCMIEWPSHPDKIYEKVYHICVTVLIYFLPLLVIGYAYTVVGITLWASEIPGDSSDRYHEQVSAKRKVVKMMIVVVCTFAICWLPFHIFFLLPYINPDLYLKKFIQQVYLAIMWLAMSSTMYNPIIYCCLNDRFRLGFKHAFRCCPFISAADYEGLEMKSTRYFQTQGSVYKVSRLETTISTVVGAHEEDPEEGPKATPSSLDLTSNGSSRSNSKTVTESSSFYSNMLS
Non-standard residues stand in square brackets, D forms with d. Residues, ends and D or L forms follow the SMILES beside them. Ava = NCCCCC(=O)O
Measured EC50 by item

COMPOUND	TESTED ON	UNIT STRING	EC50
CSCC[C@H](NC(=O)[C@@H](CC(C)C)N1C[C@@H]2CCN(C(=O)[C@H](Cc3ccccc3)NC(=O)[C@H](Cc3ccccc3)NC(=O)CCCCN)[C@@H]2C1=O)C(N)=O	UniProtKB P30547	nM	3730
CSCC[C@H](NC(=O)[C@H](CC(C)C)N1CCC(NC(=O)[C@H](Cc2ccccc2)NC(=O)[C@H](Cc2ccccc2)NC(=O)CCCCN)C1=O)C(N)=O (stereo not given in full)	UniProtKB P30547	nM	86
CSCC[C@H](NC(=O)[C@H](CC(C)C)NC(=O)CNC(=O)[C@@H](NC(=O)[C@H](Cc1ccccc1)NC(=O)CCCCN)C(C)C)C(N)=O (H-[Ava]FVGLM-NH2)	UniProtKB P30547	nM	86
CSCC[C@H](NC(=O)[C@H](CC(C)C)NC(=O)CNC(=O)[C@@H](NC(=O)[C@H](Cc1ccccc1)NC(=O)[C@H](CO)NC(=O)[C@H](CC(=O)O)NC(=O)[C@@H](NC(=O)[C@H](CCCCN)NC(=O)[C@@H](N)Cc1cnc[nH]1)[C@@H](C)O)C(C)C)C(N)=O	UniProtKB P30547	nM	13.7
CSCC[C@H](NC(=O)[C@H](CC(C)C)NC(=O)CNC(=O)[C@@H](NC(=O)[C@H](Cc1ccccc1)NC(=O)[C@H](CO)NC(=O)[C@H](CC(=O)O)NC(=O)[C@@H](N)CCCCN)C(C)C)C(N)=O	UniProtKB P30547	nM	61
CSCC[C@H](NC(=O)[C@H](CC(C)C)N1CCC(NC(=O)[C@@H](NC(=O)[C@H](Cc2ccccc2)NC(=O)[C@H](CO)NC(=O)[C@H](CC(=O)O)NC(=O)[C@H](CCCCN)NC(C)=O)C(C)C)C1=O)C(N)=O (stereo not given in full)	UniProtKB P30547	nM	44
CSCC[C@H](NC(=O)[C@@H](CC(C)C)N1C[C@H]2CCN(C(=O)[C@H](Cc3ccccc3)NC(=O)[C@H](Cc3ccccc3)NC(=O)CCCCN)[C@H]2C1=O)C(N)=O	UniProtKB P30547	nM	5230
CSCC[C@H](NC(=O)[C@H](CC(C)C)NC(=O)[C@H]1CCCN1C(=O)[C@H](Cc1ccccc1)NC(=O)[C@H](Cc1ccccc1)NC(=O)CCCCN)C(N)=O	UniProtKB P30547	nM	830
CSCC[C@H](NC(=O)[C@H](CC(C)C)N1CC2CCN(C(=O)[C@@H](NC(=O)[C@H](Cc3ccccc3)NC(=O)[C@H](CO)NC(=O)[C@H](CC(=O)O)NC(=O)[C@@H](N)CCCCN)C(C)C)C2C1=O)C(N)=O (stereo not given in full)	UniProtKB P30547	nM	1130
CSCC[C@H](NC(=O)[C@H](CC(C)C)N1C[C@H]2CCN(C(=O)[C@H](Cc3ccccc3)NC(=O)[C@H](Cc3ccccc3)NC(=O)CCCCN)[C@H]2C1=O)C(N)=O	UniProtKB P30547	nM	545
